A collection of binders and their measured glycan array binding signal (z-score)
Molecular target: Gal(a1-3)Gal(b1-4)GlcNAc
Test: glycan array binding signal (z-score within array); higher = stronger binding
Conditions: glycan notation: IUPAC condensed, linker removed
The sample as a whole holds a higher share of the strongest signals than the screen did.
Experimental readout: glycan array binding signal (z-score)

>>> measured_number("PfulAvr4 (Pseudocercospora fuligena) (protein) HHHHHHDYKDDDDKTYVQDKTPAFVCPAADIKTTKCLGPKDCLYPSPKTCNGYIQCSPADDSYLTGIIHEMPCPSGLLWNDNKKWCDWPENTTCGLVKSAGATEVDATKQGPTPGKYHG")
-0.07
>>> measured_number("Epa23 (Candida glabrata) (protein) MGSSHHHHHHSSGLVPRGSHMIPNPFEGTINNFPSGCSPNHGLYNRGLTMELYNYSYIHPQSIQSYFNTSTLKKMEKGQCWDPSYLDVNYPRTGYKTHNRFAKVNGIDGILDFEFNPTRSCVPSKGQLPQNYNYPLQFTLSNFTMLLYGYFKPKVTAKHTFTIFADDLLFLNFGAGNAFDCCQQQDTIDDFGNYQAYALWGSDTQQNTLTVNLDANIYYPIRMFYNNRDFKGALNMYFTTDESNTKINDFSGYLFNIPDSSEGCPAHISYETECGNVSG")
-0.008
>>> measured_number("CV-IIL (Chromobacterium violaceum) (protein) AQQGVFTLPARINFGVTVLVNSAATQHVEIFVDNEPRAAFSGVGTGDNNLGTKVINSGSGNVRVQITANGRQSDLVSSQLVLANKLNLAVVGSEDGTDMDYNDSIVILNWPLG")
-0.501
